Target Or System: TRPC5 channel (Homo sapiens)
Construct: expressed in transfected cells; host or cells: HEK293/TREx (Invitrogen), tetracycline-induced
Method Notes: Whole-cell patch clamp experiments on TRPC5 current
Assay type: cell-based
Condition Set: TRPC5-expressing HEK293 TREx cells, current activated by LaCl3, holding potential −40 mV, currents quantified at −80 mV and +80 mV
Test Readout: pIC50
One number for each entry, as −log10 of the molar value.

Query string: pIC50 for `CC(C)c1ccccc1-c1ncc2c(c1Cc1ccc(Cl)cc1)c(=O)n(CCCO)c(=O)n2C` ?
Result string: 7.41

====

Target Or System: TRPC5 channel (Homo sapiens, UniProt Q9UL62)
Construct: expressed in transfected cells; host or cells: HEK293/TREx (Invitrogen), tetracycline-induced
Sequence (Q9UL62 whole entry): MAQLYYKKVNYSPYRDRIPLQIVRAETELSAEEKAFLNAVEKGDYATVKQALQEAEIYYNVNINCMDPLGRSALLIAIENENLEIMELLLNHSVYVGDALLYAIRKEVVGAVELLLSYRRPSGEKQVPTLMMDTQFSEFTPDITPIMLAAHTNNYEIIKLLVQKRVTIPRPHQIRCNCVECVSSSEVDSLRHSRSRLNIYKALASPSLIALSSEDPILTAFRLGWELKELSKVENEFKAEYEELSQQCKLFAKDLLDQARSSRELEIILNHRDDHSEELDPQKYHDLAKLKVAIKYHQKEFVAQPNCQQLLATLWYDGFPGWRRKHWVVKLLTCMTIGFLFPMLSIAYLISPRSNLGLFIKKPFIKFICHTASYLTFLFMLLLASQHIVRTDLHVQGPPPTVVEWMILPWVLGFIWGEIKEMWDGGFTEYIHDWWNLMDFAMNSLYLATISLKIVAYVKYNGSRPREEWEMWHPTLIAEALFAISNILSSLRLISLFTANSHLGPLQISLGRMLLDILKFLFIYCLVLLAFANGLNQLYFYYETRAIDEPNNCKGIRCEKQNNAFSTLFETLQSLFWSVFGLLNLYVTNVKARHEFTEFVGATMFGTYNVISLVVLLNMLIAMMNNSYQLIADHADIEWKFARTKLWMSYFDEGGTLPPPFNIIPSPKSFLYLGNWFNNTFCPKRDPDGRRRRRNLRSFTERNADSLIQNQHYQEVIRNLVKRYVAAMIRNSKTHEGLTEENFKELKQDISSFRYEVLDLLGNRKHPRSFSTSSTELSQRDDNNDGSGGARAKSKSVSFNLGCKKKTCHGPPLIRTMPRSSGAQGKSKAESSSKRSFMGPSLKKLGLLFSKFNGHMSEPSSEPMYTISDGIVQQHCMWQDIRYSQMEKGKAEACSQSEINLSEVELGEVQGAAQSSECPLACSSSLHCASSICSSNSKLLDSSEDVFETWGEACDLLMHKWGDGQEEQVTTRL
Method Notes: High throughput screening assay: Fluo4 cell-based fluorescence Ca2+ influx assay
Condition Set: HEK293/TREx cells inducibly expressing TRPC5, inhibition of [Ca2+]i rise after high-Ca2+ Ringer (14 mM Ca2+), triplicate, 0.027-20 μM
Provide the recorded pIC50 for the entries that follow.
Answers are plain numbers, as −log10 of the molar value.

Some entries whose results are on file:
Cn1c(=O)n(CCCO)c(=O)c2c(Cc3ccc(Cl)cc3)c(-c3ccc(Cl)cc3)ncc21 5.79
Cn1c(=O)n(CCCO)c(=O)c2c(Cc3ccc(Cl)cc3)c(Oc3cccc(Cl)c3)ncc21 5.05
CC(C)CCc1c(-c2cccc(Cl)c2)ncc2c1c(=O)n(CCCO)c(=O)n2C 5.38

Read the next record carefully.
Query string: pIC50 for `CC(C)CCc1c(-c2ccc(Cl)cc2)ncc2c1c(=O)n(CCCO)c(=O)n2C` ?
Result string: 5.80
